Tested on: HEK-293T
Assay: Incucyte cell viability with HEK293T; further: unitless GR value; below 1 slowed growth and below 0 cell loss
Format: toxicity, cell-based
Details: human, 12 h, 10 µM, compound concentration 10 uM, replicate number 1
Quick rule: Growth Rate of at least 0.7 means condition met, below that means condition not met.

Request: Is Growth Rate for `c1ccc2c(-c3coc4cc(-c5ccc(N6CCNCC6)cc5)cnc34)ccnc2c1` at or above 0.7?
Response: condition not met

Request: Confirm if Growth Rate reported for the compound `O=C(NS(=O)(=O)N1CCC1)c1cc(C2CC2)c(OCC23CC4CC(CC(C4)C2)C3)cc1F` is 0.7 or above.
Response: condition met

Request: Hi, just wondering whether `CCN(C)C(=O)c1ccc2c(c1)NC(=O)/C2=C(\NC1CCN(C)CC1)c1ccccc1` shows Growth Rate of 0.7 or higher.
Response: condition met

Request: Identify whether the reported Growth Rate of the following compound is 0.7 or greater: C=CC(=O)N1CCC[C@@H](n2nc(-c3ccc(Oc4ccccc4)cc3)c3c(N)ncnc32)C1 [IBRUTINIB]
Response: condition not met

Request: I'd appreciate it if you could say whether CC(C)C[C@H](NC(=O)[C@@H](O)[C@H](N)Cc1ccccc1)C(=O)O [UBENIMEX] has Growth Rate at least equal to 0.7.
Response: condition not met

Request: Textbook exercise: given the entry Cc1nnc2n1-c1sc(CCC(=O)N3CCOCC3)cc1C(c1ccccc1Cl)=NC2 [APAFANT] , state whether its Growth Rate is greater than or equal to 0.7.
Response: condition met

Request: Please check the record `CP(C)(=O)c1ccc(CNC(=O)C2CCN(S(=O)(=O)c3cc(Cl)cc(Cl)c3)CC2)cc1` and state if its Growth Rate is at or above 0.7.
Response: condition met

Request: Please check the record CC(C)(C)c1cnc(CSc2cnc(NC(=O)C3CCNCC3)s2)o1 [BMS-387032] and state if its Growth Rate is at or above 0.7.
Response: condition not met

Request: Please tell me: is the compound CC[C@@H]1C(=O)N(C)c2cnc(Nc3ccc(C(=O)NC4CCN(C)CC4)cc3OC)nc2N1C1CCCC1 [BI-2536] at or over 0.7 in terms of Growth Rate?
Response: condition not met

Request: I'd appreciate it if you could say whether `C[C@]12CC[C@@H]3c4ccc(C(N)=O)cc4CC[C@H]3[C@@H]1CC=C2c1cncc(F)c1` has Growth Rate at least equal to 0.7.
Response: condition met

Request: Does the reported Growth Rate for `Cc1c(-c2cc(-c3ccccc3Cl)no2)cnn1C1CCNCC1.Cl` fall at or above the 0.7 mark?
Response: condition not met

Request: Determine whether this compound has Growth Rate no lower than 0.7: `O=C(Nc1snnc1C(=O)Nc1ccc(N2CCCC2)cc1)c1cncc(C(F)(F)F)c1`
Response: condition met

Request: Does the reported Growth Rate for `CCc1c(-c2ccc3[nH]ncc3c2)cnc(N)c1-c1ccc(O)cc1` fall at or above the 0.7 mark?
Response: condition met

Request: Answer whether Growth Rate of `O=C1NC(NC23CC4CC(CC(C4)C2)C3)=N/C1=C\c1ccc2ncsc2c1` is greater than or equal to 0.7.
Response: condition not met

Request: Textbook exercise: given the entry CC[C@H](Nc1ncnc2[nH]cnc12)c1nc2cccc(F)c2c(=O)n1-c1ccccc1 [IDELALISIB] , state whether its Growth Rate is greater than or equal to 0.7.
Response: condition not met

Request: Entry `C[C@@H]1COCCN1c1cc(=O)n2c(n1)N(Cc1cncc(Cl)c1)[C@H](C(F)(F)F)CC2` : is its Growth Rate no less than 0.7?
Response: condition not met

Request: Does `CC(=O)c1c(C)c2cnc(Nc3ccn(C)n3)nc2n(C2CCCC2)c1=O` have a reported Growth Rate of at least 0.7?
Response: condition met

Request: Reported Growth Rate reaches at least 0.7 for CCCCCCCC/C=C\CCCCCCCC(=O)NCc1ccc(O)c(OC)c1 [OLVANIL] ?
Response: condition not met

Request: Say whether `Cc1nccn1-c1ccc(Sc2cccc(C3(C(N)=O)CCOCC3)c2)cc1` shows Growth Rate of 0.7 or more.
Response: condition not met

Request: Does the compound `O=C1CN(c2ccccc2F)C(NCCN2CCOCC2)=C1c1nc2cc(Br)ccc2c(=O)[nH]1` have recorded Growth Rate that is 0.7 or more?
Response: condition not met

Request: Does the reported Growth Rate for Cl.O=C1c2cccc3c2[C@H](CCC3)CN1[C@@H]1CN2CCC1CC2 [PALONOSETRON HYDROCHLORIDE] fall at or above the 0.7 mark?
Response: condition not met

Request: Does [2H]C([2H])([2H])NC(=O)c1nnc(NC(=O)C2CC2)cc1Nc1cccc(-c2ncn(C)n2)c1OC [DEUCRAVACITINIB] have a reported Growth Rate of at least 0.7?
Response: condition met

Request: Growth Rate >= 0.7 for `CN(C)CCCNc1ccnc(Nc2cccc(Cl)c2)n1` ?
Response: condition not met

Request: Form field: Growth Rate at least 0.7? Entry: COc1cc(C(=O)NCCOCCOCCOCCC(=O)Nc2cccc3c2C(=O)N(C2CCC(=O)NC2=O)C3=O)ccc1Nc1ncc(C(F)(F)F)c(Oc2cccc3c2C(=O)CC3)n1 (stereo not given)
Response: condition not met

Request: Identify whether the reported Growth Rate of the following compound is 0.7 or greater: `COc1cc(-c2cc([C@H](O)C3CC3)n3ncnc(N)c23)ccc1CO`
Response: condition not met

Request: Is Growth Rate for CC(C)(C)c1cnc(CSc2cnc(NC(=O)C3CCN(CC(=O)NCCOCCOCCOCCNc4cccc5c4C(=O)N(C4CCC(=O)NC4=O)C5=O)CC3)s2)o1 (stereo not given) at or above 0.7?
Response: condition not met

Request: Would you say `CNc1nc(-c2ccc3c(N)n[nH]c3c2)cc(N2C[C@@H](C(=O)NC3CCCCC3)CC[C@H]2C)n1` shows Growth Rate at minimum 0.7?
Response: condition met

Request: Test whether the compound `COCc1c(-c2cc3cc(C)cc(OC)c3s2)c2c(N)ncnn2c1CN[C@@H]1CCNC1=O` records Growth Rate of 0.7 or higher.
Response: condition not met

Request: Reported Growth Rate reaches at least 0.7 for Cc1cccc(F)c1C(=O)Nc1cnc(-c2cc3c(cc2Cl)OC(F)(F)O3)cn1 [ZEGOCRACTIN] ?
Response: condition not met

Request: Could you verify whether the entry C[C@@]1(Cc2ccc(C#N)cc2)C(=O)N(c2cc(Cl)cc(Cl)c2)c2ncc(C(=O)NC3(c4nc(C5CCC5)no4)CC3)n21 [BI 9446] shows Growth Rate of no less than 0.7?
Response: condition not met

Request: Check the entry C[C@@H]1C[C@H](N)C[C@H](c2ccncc2NC(=O)c2ccc(F)c(-c3c(F)cccc3F)n2)C1 [LGH-447] : does Growth Rate equal or exceed 0.7?
Response: condition not met

Request: Dear colleague, could you confirm whether COCCNC1CCC(Nc2cc(-c3csc(NCC4(C#N)CCOCC4)n3)c(Cl)cn2)CC1 (stereo not given) has Growth Rate at or above 0.7?
Response: condition not met
